Molecular target: T1, JEV SA14-14-2 envelope (E) protein on virions (Japanese encephalitis virus strain …, UniProt P0DOH7 295-794)
T1 chain: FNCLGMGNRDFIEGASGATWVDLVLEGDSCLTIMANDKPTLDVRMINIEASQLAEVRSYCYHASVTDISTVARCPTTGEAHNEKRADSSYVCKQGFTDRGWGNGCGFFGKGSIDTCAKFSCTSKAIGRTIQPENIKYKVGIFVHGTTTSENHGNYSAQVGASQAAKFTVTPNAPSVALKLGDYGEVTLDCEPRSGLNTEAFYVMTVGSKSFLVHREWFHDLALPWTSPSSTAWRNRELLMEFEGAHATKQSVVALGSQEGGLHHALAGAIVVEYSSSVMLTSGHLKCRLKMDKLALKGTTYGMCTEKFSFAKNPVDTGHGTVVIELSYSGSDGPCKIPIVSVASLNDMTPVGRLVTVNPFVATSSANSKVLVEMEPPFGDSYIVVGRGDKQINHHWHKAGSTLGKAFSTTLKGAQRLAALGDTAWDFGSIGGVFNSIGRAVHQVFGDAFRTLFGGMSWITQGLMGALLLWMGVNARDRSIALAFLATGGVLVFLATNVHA
Experiment: cell-based or functional assay

binder	PRNT50 titer [nM]
Fab A3 (Fab, V domains shown) VH: EVQLLESGAEVKKPGSSVRISCKVSGTPYSSYVMNWVRQAPGQGLEWMGVFVPSLDRALYAQNFQGRLSITADTTTTYMELTSLKFEDTAVYYCATDFSVGWLRPLDRWGQGTLVTVSS VL: ELQMTQSPSSLSASVGDRVTITCRASQGISNYLAWYQQKPGKAPKLLIYYASRLESGVPSRFSGSGSGTDYTLTISSLQPEDFATYYCQQYNSNPFTFGPGTKVDIKR	2.55
Fab E3 (Fab, V domains shown) VH: EVQLLESGPGLVRPSQTLSLTCAVSGASISGPLSYWTWIRQSPGKKMEHIGSMFYSGNTYYNPSLKGRITMSVDTSRNQFSLNLNSVTVADTAVYFCARRRETELFGLPIDYWGQGILVTVSS VL: ELTQSPATLSVSPGERATLSCRASERISSSYLSWYQQKPGQAPRLLMYGTSTRATGIPARFSGSGSGTDFTLTISSLQPEDFAVYFCQQDYNLPWTFGQGTKLEIKR	84.9
humanized MAb E3 (antibody, V domains shown) VH: EVQLLESGPGLVRPSQTLSLTCAVSGASISGPLSYWTWIRQSPGKKMEHIGSMFYSGNTYYNPSLKGRITMSVDTSRNQFSLNLNSVTVADTAVYFCARRRETELFGLPIDYWGQGILVTVSS VL: ELTQSPATLSVSPGERATLSCRASERISSSYLSWYQQKPGQAPRLLMYGTSTRATGIPARFSGSGSGTDFTLTISSLQPEDFAVYFCQQDYNLPWTFGQGTKLEIKR	0.93
Fab B2 (Fab, V domains shown) VH: VQLLEQSGSEVKKPGASVKVSCKASGYPFTDYAMSWVRQAPGQGLEYMGWIFTNSGNPTYAPGFAGRFVFSLDISVNTAYLHIDSLKPEDTAVYYCARGIVTPAASGDYFDSWGQGTLVTVSS VL: ELVLTQSPSSLSASIGDRVTITCRASQHISSWLAWYQQKPGKAPKPLIYAASSLKSGVPSRFSGSGSGTDFTLTISGLQPEDFATYYCQQYENSPVTFGGGTKVEIKR	0.25
humanized MAb A3 (antibody, V domains shown) VH: EVQLLESGAEVKKPGSSVRISCKVSGTPYSSYVMNWVRQAPGQGLEWMGVFVPSLDRALYAQNFQGRLSITADTTTTYMELTSLKFEDTAVYYCATDFSVGWLRPLDRWGQGTLVTVSS VL: ELQMTQSPSSLSASVGDRVTITCRASQGISNYLAWYQQKPGKAPKLLIYYASRLESGVPSRFSGSGSGTDYTLTISSLQPEDFATYYCQQYNSNPFTFGPGTKVDIKR	0.2
humanized MAb B2 (antibody, V domains shown) VH: VQLLEQSGSEVKKPGASVKVSCKASGYPFTDYAMSWVRQAPGQGLEYMGWIFTNSGNPTYAPGFAGRFVFSLDISVNTAYLHIDSLKPEDTAVYYCARGIVTPAASGDYFDSWGQGTLVTVSS VL: ELVLTQSPSSLSASIGDRVTITCRASQHISSWLAWYQQKPGKAPKPLIYAASSLKSGVPSRFSGSGSGTDFTLTISGLQPEDFATYYCQQYENSPVTFGGGTKVEIKR	0.03
